Test system: IRE1-XBP1s (XBP1-RLuc splicing reporter in HEK293 T-REx cells)
Assay info: IRE1-XBP1s activation assay (XBP1-RLuc splicing reporter, HEK293 T-REx cells, luminescence relative to thapsigargin)
Type: cell-based
Condition parameters: 18 h, compound 10 μM, HEK293 T-REx XBP1-RLuc reporter cells, relative to thapsigargin (Tg) 500 nM, read-out: Activity (IRE1-XBP1s activation, luminescence as % signal relative to thapsigargin, % Tg)
Below is a list of entries, each paired with its recorded activation at 10 µM value.
Recorded metric: activation at 10 µM

- Cc1ccc(OCCN(C)C(=O)Cn2cc(NC(=O)CCNc3cc(C)nc(C)c3)cn2)cc1 [Compound 123]: 30 to 50%
- Cc1ccc(OCCN(C)C(=O)Cn2cc(NC(=O)CCNc3cncc(Cl)n3)cn2)cc1 [Compound 151]: 30 to 50%
- Cc1ccc(OCCN(C)C(=O)Cn2cc(NC(=O)CCNc3ncc(F)cc3C)cn2)cc1 [Compound 206]: > 50%
- Cc1ccc(OCCN(C)C(=O)Cn2cc(NC(=O)CCNc3cc(C#N)ccn3)cn2)cc1 [Compound 137]: < 30%
- CN(CCOc1ccc(C(F)(F)F)cc1)C(=O)Cn1cc(NC(=O)CCOc2ccncc2F)cn1 [Compound 19]: 30 to 50%
- Cc1ccc(OC[C@H](C)N(C)C(=O)Cn2cc(NC(=O)CCNc3ccnc(F)n3)cn2)cc1 [Compound 264]: > 50%
- Cc1ccc(OCCN(C)C(=O)Cn2cc(NC(=O)CCNc3ccnc(O)n3)cn2)cc1 [Compound 260]: < 30%
- Cc1ccc(OCCN(C)C(=O)Cn2cc(NC(=O)CCNc3cnc(F)c(C)c3)cn2)cc1 [Compound 121]: > 50%
